All figures here come from patent US5023338A.

# system.tested: renin (Homo sapiens)
# Sequence (P00797 67-406): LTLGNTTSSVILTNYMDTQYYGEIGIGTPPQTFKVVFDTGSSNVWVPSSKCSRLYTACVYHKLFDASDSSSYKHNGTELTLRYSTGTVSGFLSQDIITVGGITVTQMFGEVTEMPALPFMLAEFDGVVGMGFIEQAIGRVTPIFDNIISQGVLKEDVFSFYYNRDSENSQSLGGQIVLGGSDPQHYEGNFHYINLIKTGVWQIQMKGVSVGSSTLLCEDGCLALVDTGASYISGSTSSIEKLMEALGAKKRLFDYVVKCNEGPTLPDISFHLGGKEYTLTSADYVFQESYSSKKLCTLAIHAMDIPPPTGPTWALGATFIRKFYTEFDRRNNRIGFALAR
# assay.protocol: in vitro inhibition of renin, radio immunoassay detection of Angiotensin I from an angiotensinogen-like substrate
# Assay type: biochemical
# recorded.conditions: 10^-6 M concentration of test compound
quantity.measured: % I, percent inhibition of renin activity (%)
Hi! Could you send only the number? It should be in %, unit omitted.

{"columns": ["compound", "output.unit", "readout.number"],
 "data": [
  ["CC(C)C[C@H](NC(=O)[C@H](Cc1ccccc1)N1CCCC1=O)C(=O)NC(CC1CCCCC1)C(O)C(=O)OC(C)C (stereo partly drawn)", "%", 93],
  ["COC(=O)C(O)C(CC1CCCCC1)NC(=O)[C@H](CC(C)C)NC(=O)[C@H](Cc1ccccc1)N1C(=O)c2ccccc2C1=O (stereo partly drawn)", "%", 45]
]}

Shift focus to the following entry.
Query: Check the records and state % I, percent inhibition of renin activity for CC(C)C[C@H](NC(=O)[C@H](Cc1ccccc1)N1Cc2cccc3cccc(c23)C1=O)C(=O)NC(CC1CCCCC1)C(O)C(=O)OC(C)C (stereo partly drawn)
Reply: 92
